Cited source for all entries: patent US12421243B2

assay: tissue concentrations after intraperitoneal injection into a live rat; type: in vivo; conditions: brain, ip, 6 mg i.p., 30 min, read-out: Concentration of compound 188 in tissue samples (μM) brain
test-readout: concentration at 30 min

Memo: O=C1c2ccsc2N=C2N(c3ccc(N4CCOCC4)cc3)CCC12O (stereo not shown) , reported concentration at 30 min: 36 µM

====

biological target: recombinant Dictyostelium miozin (Dictyostelium) (Dictyostelium discoideum, UniProt P08799); assay: actomyosin steady state ATPase measurement, Dictyostelium myosin; type: biochemical; settings: read-out: % inhibition at 50 μM (or 100 μM if racemate) Dicty
Sequence (P08799 whole entry): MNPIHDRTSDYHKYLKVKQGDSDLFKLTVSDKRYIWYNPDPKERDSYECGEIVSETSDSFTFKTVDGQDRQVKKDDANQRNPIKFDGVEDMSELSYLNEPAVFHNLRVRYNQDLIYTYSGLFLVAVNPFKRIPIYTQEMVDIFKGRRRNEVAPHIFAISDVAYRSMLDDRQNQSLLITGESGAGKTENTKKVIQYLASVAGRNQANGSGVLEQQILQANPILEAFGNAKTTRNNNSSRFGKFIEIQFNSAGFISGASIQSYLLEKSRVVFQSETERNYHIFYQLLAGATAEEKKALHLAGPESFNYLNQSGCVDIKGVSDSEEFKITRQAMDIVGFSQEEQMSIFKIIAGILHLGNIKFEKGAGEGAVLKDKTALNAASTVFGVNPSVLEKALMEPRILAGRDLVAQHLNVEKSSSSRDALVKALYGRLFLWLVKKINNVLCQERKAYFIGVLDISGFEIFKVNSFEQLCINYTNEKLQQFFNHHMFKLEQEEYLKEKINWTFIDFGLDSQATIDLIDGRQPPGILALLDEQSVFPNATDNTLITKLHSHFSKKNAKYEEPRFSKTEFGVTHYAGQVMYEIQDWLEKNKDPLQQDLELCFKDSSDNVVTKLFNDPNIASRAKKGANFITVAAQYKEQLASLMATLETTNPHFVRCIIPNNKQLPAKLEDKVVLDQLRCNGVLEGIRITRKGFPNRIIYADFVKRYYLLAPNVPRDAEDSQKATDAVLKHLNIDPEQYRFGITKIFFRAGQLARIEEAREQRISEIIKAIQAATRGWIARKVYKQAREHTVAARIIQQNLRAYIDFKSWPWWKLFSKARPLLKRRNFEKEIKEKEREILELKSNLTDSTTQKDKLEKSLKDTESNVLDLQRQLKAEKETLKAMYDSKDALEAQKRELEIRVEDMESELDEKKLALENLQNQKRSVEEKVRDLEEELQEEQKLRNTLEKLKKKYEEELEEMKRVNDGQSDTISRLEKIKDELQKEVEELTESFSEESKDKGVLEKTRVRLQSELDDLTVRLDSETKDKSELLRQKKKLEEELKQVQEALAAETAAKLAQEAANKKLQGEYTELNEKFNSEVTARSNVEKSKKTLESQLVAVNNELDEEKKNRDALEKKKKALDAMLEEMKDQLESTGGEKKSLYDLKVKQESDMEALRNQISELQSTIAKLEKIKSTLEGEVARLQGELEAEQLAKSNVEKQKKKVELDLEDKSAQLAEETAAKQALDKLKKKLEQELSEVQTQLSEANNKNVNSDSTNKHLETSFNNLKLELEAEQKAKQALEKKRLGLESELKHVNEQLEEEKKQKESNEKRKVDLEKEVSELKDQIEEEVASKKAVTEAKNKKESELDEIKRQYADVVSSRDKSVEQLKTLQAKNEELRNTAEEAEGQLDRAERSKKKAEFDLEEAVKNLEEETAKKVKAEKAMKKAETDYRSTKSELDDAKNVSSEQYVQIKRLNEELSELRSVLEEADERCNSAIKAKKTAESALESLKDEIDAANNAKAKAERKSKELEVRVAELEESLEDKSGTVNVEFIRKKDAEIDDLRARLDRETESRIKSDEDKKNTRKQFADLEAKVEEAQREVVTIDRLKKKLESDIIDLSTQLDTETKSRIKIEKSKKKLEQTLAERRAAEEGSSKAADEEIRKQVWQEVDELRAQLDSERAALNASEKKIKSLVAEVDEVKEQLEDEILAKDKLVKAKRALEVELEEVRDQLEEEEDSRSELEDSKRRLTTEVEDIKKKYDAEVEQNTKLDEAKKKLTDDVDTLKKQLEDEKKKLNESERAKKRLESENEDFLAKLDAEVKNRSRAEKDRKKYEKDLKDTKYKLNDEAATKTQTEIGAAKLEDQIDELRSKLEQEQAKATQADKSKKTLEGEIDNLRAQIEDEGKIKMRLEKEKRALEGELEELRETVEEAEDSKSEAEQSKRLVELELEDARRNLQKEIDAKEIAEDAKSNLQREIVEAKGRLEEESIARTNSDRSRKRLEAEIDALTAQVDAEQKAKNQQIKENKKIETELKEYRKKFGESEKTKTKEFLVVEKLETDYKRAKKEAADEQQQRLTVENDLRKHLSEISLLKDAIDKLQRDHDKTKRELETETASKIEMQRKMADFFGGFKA
# inhibition at 50 µM per record follows
Kindly answer with a numeric value in %, unit omitted.

For orientation, consider the following solved cases.
{"columns": ["compound", "measurement-units", "inhibition at 50 µM"],
 "data": [
  ["N#CCc1ccc(N2CC[C@@]3(O)C(=O)c4ccsc4N=C23)cc1", "%", 63],
  ["COc1ccc(N2CCC3(O)C(=O)c4cc(C)sc4N=C23)cn1 (stereo not shown)", "%", 90],
  ["O=C1c2ccsc2N=C2NCC[C@@]12O", "%", 5],
  ["Cc1cc2c(s1)N=C1N(c3ccc(N4CCOCC4)cc3)CCC1(O)C2=O (stereo not shown)", "%", 0],
  ["Cc1cc2c(s1)N=C1N(c3cccs3)CC[C@@]1(O)C2=O", "%", 89],
  ["CC(=O)c1ccc(N2CC[C@@]3(O)C(=O)c4ccsc4N=C23)cc1", "%", 59]
]}

Memo: O=C1c2ccncc2N=C2NCCC12O (stereo not shown) , reported inhibition at 50 µM: 18

Memo: "N#Cc1ccc(N2CC[C@@]3(O)C(=O)c4ccsc4N=C23)cc1" , reported inhibition at 50 µM: 81

Memo: "Cc1ccc(N2CC[C@@]3(O)C(=O)c4ccsc4N=C23)cc1" , reported inhibition at 50 µM: 76

Memo: "COc1ccc(N2CC[C@@]3(O)C(=O)c4ccsc4N=C23)cc1" , reported inhibition at 50 µM: 85

Memo: Cc1cc2c(s1)N=C1N(c3ccc(OC(F)(F)F)cc3)CCC1(O)C2=O (stereo not shown) , reported inhibition at 50 µM: 96

Memo: "O=C1c2ccsc2N=C2N(c3ccc(OC(F)(F)F)cc3)CC[C@@]12O" , reported inhibition at 50 µM: 69

Memo: Cc1ccc(N2CCC3(O)C(=O)c4cc(C)sc4N=C23)cc1 (stereo not shown) , reported inhibition at 50 µM: 45

Memo: COc1ccc(N2CCC3(O)C(=O)c4cc(C)sc4N=C23)cc1 (stereo not shown) , reported inhibition at 50 µM: 99
